Biological target: T1, Glutathione S-transferase (GST)-tagged AITR (human, UniProt Q9Y5U5 26-139)
T1 construct: also called GST-AITR antigen; GST-AITR analyte; not shown: Glutathione S-transferase (GST) tag
T1 sequence (looked up): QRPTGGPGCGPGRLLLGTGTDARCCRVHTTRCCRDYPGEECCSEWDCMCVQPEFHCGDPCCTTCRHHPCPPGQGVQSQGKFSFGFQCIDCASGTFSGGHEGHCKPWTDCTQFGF
Experiment: KD ratio against parental IRTCA-A, repeated from the SPR of Table 3
A collection of binders and their measured KD Ratio
observable: KD Ratio (fold)

| binder | observable | endpoint_result |
| --- | --- | --- |
| Parental IRTCA-A Fab (Fab, V domains shown) VH: QVQLVQSGTQVKMPGASVKVSCKASGYTFDDYGIGWVRQAPGQGLEWMGWISPYTHRTNSSPKLQDRVTMTTDTSTSTAYMELRSLRSDDTAVYYCARDGTYYDFWSGYFDNGAFDIWGQGTLVTVSS VL: QSVVTQPPSVSAAPGQKVTISCSGSTSNIGNNYVSWYQQLPGTAPKLLIYDNYKRPSGIPDRFSGSKSGTSATLGITGLRTGDEADYFCGTWDSSLNAWVFGGGTKLTVL | KD Ratio | 1 |
| IRTCA-A14 (Clone H2F8) Fab (Fab, V domains shown) VH: QVQLVQSGTQVKMPGASVKVSCKASGYTFDDYGIGWVRQAPGQGLEWMGWISPYTHRTNSSPKLQDRVTMTTDTSTSTAYMELRSLRSDDTAVYYCARDGTYYDFWSGYFDTAAFDIWGQGTLVTVSS VL: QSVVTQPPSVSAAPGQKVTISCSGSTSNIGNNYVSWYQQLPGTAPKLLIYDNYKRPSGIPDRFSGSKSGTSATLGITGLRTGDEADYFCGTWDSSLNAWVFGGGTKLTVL | KD Ratio | 30.1 |
| IRTCA-A15 (Clone H1F1) Fab (Fab, V domains shown) VH: QVQLVQSGTQVKMPGASVKVSCKASGYTFDDYGIGWVRQAPGQGLEWMGWISPYTHRTNSSPKLQDRVTMTTDTSTSTAYMELRSLRSDDTAVYYCARDGTYYDFWSGYFDNNAFDIWGQGTLVTVSS VL: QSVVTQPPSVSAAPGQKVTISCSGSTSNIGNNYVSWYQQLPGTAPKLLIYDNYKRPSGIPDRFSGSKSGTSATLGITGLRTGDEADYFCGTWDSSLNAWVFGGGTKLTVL | KD Ratio | 44.4 |
